Target: BRDT (Homo sapiens, UniProt Q58F21)
Experiment: competitive TR-FRET assay, BET-BD with acetylated peptide ligand
Type: binding
Details: Table 4; read-out: BRDT EC50
pEC50: −log10 of the molar value.

- compound: "CC(=O)Nc1cccc(-c2ccc3c(c2)[C@H](Nc2ccc(F)cc2)C[C@H](C)N3C(C)=O)c1"
  test_system: "BRDT (Homo sapiens, UniProt Q58F21)"
  pEC50: 5.00
- compound: "CC(=O)Nc1cccc(-c2ccc3c(c2)[C@H](Nc2ccccc2C(F)(F)F)C[C@H](C)N3C(C)=O)c1"
  test_system: "BRDT (Homo sapiens, UniProt Q58F21)"
  pEC50: 4.28
- compound: "CC(=O)Nc1cccc(-c2ccc3c(c2)[C@H](Nc2ccccc2OC(F)(F)F)C[C@H](C)N3C(C)=O)c1"
  test_system: "BRDT (Homo sapiens, UniProt Q58F21)"
  pEC50: 5.00
- compound: "CC(=O)N1c2ccc(-c3ccc(C(=O)O)cc3)cc2[C@H](Nc2ccc(Cl)cc2)C[C@@H]1C [GSK-726, IBET-726, reference compound]"
  test_system: "BRDT (Homo sapiens, UniProt Q58F21)"
  pEC50: 5.28

---

Item-by-item account of pEC50
Target: BRD4-BD2 (Homo sapiens (Human))
Test: competitive TR-FRET assay, BET-BD with acetylated peptide ligand
Format: binding
Settings: BRD4-BD2; Table 11 additional modifications; read-out: 4.2 EC50
pEC50: −log10 of the molar value.

- compound: "CC(=O)N1c2ccc(-c3cccc(-n4cccn4)c3)cc2[C@H](NC(=O)OC(C)C)C[C@@H]1C"
  pEC50: 5.17
- compound: "CC(=O)N1c2ccc(-c3ccc4c(c3)OCCO4)cc2[C@H](NC(=O)OC(C)C)C[C@@H]1C"
  pEC50: 4.85
- compound: "CC(=O)N1c2ccc(-c3c[nH]c4ccccc34)cc2[C@H](NC(=O)OC(C)C)C[C@@H]1C"
  pEC50: 4.43
- compound: "CC(=O)Nc1cccc(-c2ccc3c(c2)[C@H](N)C[C@H](C)N3C(C)=O)c1"
  pEC50: 4.82

---

Target: BRD4-BD2 (Homo sapiens (Human), UniProt O60885)
Experiment: competitive TR-FRET assay, BET-BD with acetylated peptide ligand
Format: binding
Details: BRD4-BD2; Table 11 additional modifications; read-out: 4.2 EC50
Item-by-item account of EC50
reported_property: EC50 (µM)

- compound: "CC(=O)N1c2ccc(-c3ccc4occc(=O)c4c3)cc2[C@H](NC(=O)OC(C)C)C[C@@H]1C [compound 80]"
  reported_property: "EC50"
  readout_unit: "µM"
  sign: "="
  recorded_value: 4
- compound: "COc1cccc(-c2ccc3c(c2)[C@H](NC(=O)OC(C)C)C[C@H](C)N3C(C)=O)c1 [compound 3]"
  reported_property: "EC50"
  readout_unit: "µM"
  sign: ">"
  recorded_value: 67.8
- compound: "CC(=O)Nc1cccc(-c2ccc3c(c2)[C@H](NC(=O)C(C)C)C[C@H](C)N3C(C)=O)c1 [compound 71]"
  reported_property: "EC50"
  readout_unit: "µM"
  sign: "="
  recorded_value: 11
- compound: "CC(=O)Nc1cccc(-c2ccc3c(c2)[C@H](NC2CCCCCC2)C[C@H](C)N3C(C)=O)c1 [compound 37]"
  reported_property: "EC50"
  readout_unit: "µM"
  sign: "="
  recorded_value: 0.54
- compound: "COc1ccc(N[C@@H]2C[C@H](C)N(C(C)=O)c3ccc(-c4cccc(NC(C)=O)c4)cc32)cc1 [compound 18]"
  reported_property: "EC50"
  readout_unit: "µM"
  sign: "="
  recorded_value: 0.08
- compound: "CC(=O)N1c2ccc(-c3ccc(Oc4ccccc4)cc3)cc2[C@H](NC(=O)OC(C)C)C[C@@H]1C [compound 61]"
  reported_property: "EC50"
  readout_unit: "µM"
  sign: "="
  recorded_value: 14
- compound: "CC(=O)Nc1cccc(-c2ccc3c(c2)[C@H](NC2CCOCC2)C[C@H](C)N3C(C)=O)c1 [compound 36]"
  reported_property: "EC50"
  readout_unit: "µM"
  sign: "="
  recorded_value: 5.4
